# Target: T1, human GIP receptor (human) (UniProt P48546)
# T1 sequence (looked up): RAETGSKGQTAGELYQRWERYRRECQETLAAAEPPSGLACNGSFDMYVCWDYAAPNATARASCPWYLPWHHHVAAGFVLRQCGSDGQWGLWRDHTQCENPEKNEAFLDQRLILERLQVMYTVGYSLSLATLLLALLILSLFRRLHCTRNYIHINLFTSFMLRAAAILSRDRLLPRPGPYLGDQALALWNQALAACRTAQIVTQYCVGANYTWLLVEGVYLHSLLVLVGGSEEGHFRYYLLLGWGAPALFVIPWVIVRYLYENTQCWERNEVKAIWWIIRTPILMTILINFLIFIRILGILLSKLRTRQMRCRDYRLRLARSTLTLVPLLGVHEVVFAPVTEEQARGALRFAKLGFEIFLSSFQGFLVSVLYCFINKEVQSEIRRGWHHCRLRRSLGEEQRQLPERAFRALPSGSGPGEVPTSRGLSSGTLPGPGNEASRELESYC
# Protocol summary: cell-based or functional assay
Reported endpoint: log10 cAMP Rel EC50, nM (1% HSA) (log10 of the value in nM)

• YXQGTFTSDFSXXLDKKAQXAFIEYLLEXGXSSGAPPPSGT (synthetic construct; SITE 2: note = 2-Aminoisobutyric Acid; SITE 12: note = L-ornithine; SITE 13: note = alpha-methyl-leucine; SITE 17: note = Lysine is chemically modified through conjugation of the epsilon-amino group of the Lysine side chain with (2-[2-(2-Amino-ethoxy)-ethoxy]-acetyl)2-(gamma-Glu)) [Example 184] = 1.21
• YXQGTFTSDFSXXLDKKAQXAFIEYLLEXGHSSGAPPPSGS (acylated; synthetic construct; SITE 2: note = 2-Aminoisobutyric Acid; SITE 12: note = L-ornithine; SITE 13: note = alpha-methyl-leucine; SITE 17: note = Lysine is chemically modified through conjugation of the epsilon-amino group of the Lysine side chain with (gamma-Glu)-(2-[2-(2-Amino-ethoxy)-ethoxy]-acetyl)) [Example 245] = 1.02
• YXQGTFTSDYSQXLDKKAQXAFIEYLLEGGESSGAPPPSGS (synthetic construct; SITE 2: note = 2-Aminoisobutyric Acid; SITE 13: note = alpha-methyl-leucine; SITE 17: note = Lysine is chemically modified through conjugation of the epsilon-amino group of the Lysine side chain with (2-[2-(2-Amino-ethoxy)-ethoxy]-acetyl)-(gamma-Glu)-CO-(CH2) 16-CO2H; SITE 20: n) [Example 362] = 1.59
• YXQGTFTSDXSQXLDXKAQXQFIEYLIAGGPSSGAPPPSGSEE (non-natural residues; Lys acylated C18 diacid via γGlu2; C-term amide; synthetic construct; SITE 2: note = 2-Aminoisobutyric Acid; SITE 10: note = 3-(4-Pyridyl)-L-alanine; SITE 13: note = alpha-methyl-leucine; SITE 16: note = L-ornithine; SITE 17: note = Lysine is chemically modified through conjugation of the epsilon-amino group of the Lysine side chain with (gamma-Gl)) [Example 1005] = 1.16
• YXQGTXTSDYSIXLDKKAQXAFIEYLEEGGPSSGAPPPS (synthetic construct; SITE 2: note = 2-Aminoisobutyric Acid; SITE 6: note = alpha-methyl-L-phenylalanine; SITE 13: note = alpha-methyl-leucine; SITE 17: note = Lysine is chemically modified through conjugation of the epsilon-amino group of the Lysine side chain with (2-[2-(2-Amino-ethoxy)-ethoxy]-ace)) [Example 394] = 0.86
• YXQGTXTSDYSILLDKKAQXAFIEYLLEGGPSSGAPPPE (not fully specified; synthetic construct; SITE 2: note = 2-Aminoisobutyric Acid; SITE 6: note = alpha-methyl-2-fluoro-L-phenylalanine; SITE 17: note = Lysine is chemically modified through conjugation of the epsilon-amino group of the Lysine side chain with (2-[2-(2-Amino-ethoxy)-ethoxy]-acetyl)2-(gamma-Glu)-CO-(CH2 )18) [Example 386] = 0.75
• YXQGTFTSDFSKXLDKKAQXAFIEYLLEGGESSGAPPPSGS (synthetic construct; SITE 2: note = 2-Aminoisobutyric Acid; SITE 13: note = alpha-methyl-leucine; SITE 17: note = Lysine is chemically modified through conjugation of the epsilon-amino group of the Lysine side chain with (2-[2-(2-Amino-ethoxy)-ethoxy]-acetyl)2-(gamma-Glu)-CO-(CH2 )16-CO2H; SITE 20:) [Example 147] = 2.03

Attribution: patent US20240270821A1
